- assayTarget: T1, Human IL2Rγ extracellular domain expressed with a C-terminal myc-myc-hexahistidine tag (human)
- T1 construct: also called hIL-2Rg-MMH; hIL-2RG-MMH
- T1 chain: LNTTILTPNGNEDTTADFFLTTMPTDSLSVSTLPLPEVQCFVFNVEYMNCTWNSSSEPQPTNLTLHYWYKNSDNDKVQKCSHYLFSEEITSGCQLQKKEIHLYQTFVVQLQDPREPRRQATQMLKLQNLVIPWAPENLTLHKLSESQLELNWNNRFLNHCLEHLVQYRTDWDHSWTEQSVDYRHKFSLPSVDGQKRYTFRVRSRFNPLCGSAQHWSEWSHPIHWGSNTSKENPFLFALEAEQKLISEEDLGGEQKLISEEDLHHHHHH
- assayProcedure: SPR Biacore 4000, mAb captured by anti-hFc, HBS-ET, 25C
reportedProperty: pKd
# pKd = -log10(concentration in molar units)

Lab book: pKd of H4H12900P (antibody, human IgG4 S228P, kappa, V domains shown, anti-IL2Rγ monoclonal antibody expressed with human IgG4 Fc) VH: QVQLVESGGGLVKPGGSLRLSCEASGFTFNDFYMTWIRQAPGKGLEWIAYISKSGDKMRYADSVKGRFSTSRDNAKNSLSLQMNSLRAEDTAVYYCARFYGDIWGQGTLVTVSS VL: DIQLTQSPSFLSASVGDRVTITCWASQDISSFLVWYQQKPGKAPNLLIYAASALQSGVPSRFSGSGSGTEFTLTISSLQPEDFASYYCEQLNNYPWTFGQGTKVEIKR noted as 8.89
